Target chain: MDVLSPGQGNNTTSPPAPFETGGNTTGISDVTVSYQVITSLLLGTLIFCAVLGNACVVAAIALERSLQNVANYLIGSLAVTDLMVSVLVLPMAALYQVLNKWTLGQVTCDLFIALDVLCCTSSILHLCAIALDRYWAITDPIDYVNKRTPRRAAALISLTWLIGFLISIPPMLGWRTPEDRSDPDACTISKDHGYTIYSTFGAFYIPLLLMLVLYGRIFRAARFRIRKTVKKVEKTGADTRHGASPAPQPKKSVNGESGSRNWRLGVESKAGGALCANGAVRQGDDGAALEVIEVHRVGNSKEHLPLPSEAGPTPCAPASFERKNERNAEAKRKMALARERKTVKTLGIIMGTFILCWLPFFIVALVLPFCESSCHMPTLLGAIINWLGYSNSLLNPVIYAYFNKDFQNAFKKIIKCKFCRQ
Readout Type: IC50

Name the reported IC50 value associated with the compound CNCC1CC2c3ccccc3Cc3ccccc3N2O1 (stereo unspecified) > 1 µM

###

Molecular target: 5-hydroxytryptamine receptor 2C (Homo sapiens, UniProt P28335)
Sequence (P28335 whole entry): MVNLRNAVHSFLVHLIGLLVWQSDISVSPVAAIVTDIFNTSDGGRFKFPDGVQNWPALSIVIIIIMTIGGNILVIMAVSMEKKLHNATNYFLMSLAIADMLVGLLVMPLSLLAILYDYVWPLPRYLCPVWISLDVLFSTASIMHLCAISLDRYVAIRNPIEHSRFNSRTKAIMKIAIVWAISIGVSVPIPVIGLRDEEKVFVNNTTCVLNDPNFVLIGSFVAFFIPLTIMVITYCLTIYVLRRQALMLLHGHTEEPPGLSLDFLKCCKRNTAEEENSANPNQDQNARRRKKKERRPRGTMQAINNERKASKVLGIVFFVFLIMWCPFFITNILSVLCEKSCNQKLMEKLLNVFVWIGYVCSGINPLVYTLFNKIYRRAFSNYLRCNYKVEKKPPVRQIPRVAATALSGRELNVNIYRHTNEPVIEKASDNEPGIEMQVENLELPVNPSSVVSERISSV
Assay: Binding affinity for human cloned 5-hydroxytryptamine 2C receptor expressed in CHO cells using [3H]mesulergine as radioligand
Reported IC50 values follow for various molecules
Respond numerically; units are nM and should not be typed.

CC(C)N(CC1CC2c3ccccc3Cc3ccccc3N2O1)C(C)C (stereo unspecified)	324

Name the reported IC50 value associated with the molecule CNCC1CC2c3ccccc3Cc3ccccc3N2O1 (stereo unspecified) 7.08

Name the reported IC50 value associated with the molecule CN(C)CCC1CC2c3ccccc3Cc3ccccc3N2O1 (stereo unspecified) 37.2

Name the reported IC50 value associated with the molecule CN(C)CC1CC2c3ccccc3Cc3ccccc3N2O1 (stereo in doubt; 2a) 12.3

Name the reported IC50 value associated with the molecule CN(C)CC1(C)CC2c3ccccc3Cc3ccccc3N2O1 (stereo in doubt; trans) 933

Name the reported IC50 value associated with the molecule c1ccc2c(c1)Cc1ccccc1N1OC(CN3CCCC3)CC21 (stereo unspecified) 16.2

###

target: UniProt:P28221
Sequence (P28221 whole entry): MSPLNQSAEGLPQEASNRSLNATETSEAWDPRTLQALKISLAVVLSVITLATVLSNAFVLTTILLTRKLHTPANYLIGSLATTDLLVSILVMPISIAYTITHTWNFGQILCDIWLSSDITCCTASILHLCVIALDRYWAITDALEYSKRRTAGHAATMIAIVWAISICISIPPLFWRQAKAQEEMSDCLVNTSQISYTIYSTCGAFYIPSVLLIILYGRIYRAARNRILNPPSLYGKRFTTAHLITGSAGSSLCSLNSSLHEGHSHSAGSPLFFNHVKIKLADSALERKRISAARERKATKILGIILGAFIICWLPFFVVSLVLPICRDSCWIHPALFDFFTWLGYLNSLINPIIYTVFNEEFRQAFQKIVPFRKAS
Readout Type: IC50 (nM)
Respond numerically; units are nM and should not be typed.

Name the reported IC50 value associated with the compound CN1CCN2c3ccccc3Cc3ccccc3C2C1 (configuration not stated) [MIANSERIN] 380

###

Molecular target: Alpha-1A adrenergic receptor (Homo sapiens, UniProt P35348)
Sequence (P35348 whole entry): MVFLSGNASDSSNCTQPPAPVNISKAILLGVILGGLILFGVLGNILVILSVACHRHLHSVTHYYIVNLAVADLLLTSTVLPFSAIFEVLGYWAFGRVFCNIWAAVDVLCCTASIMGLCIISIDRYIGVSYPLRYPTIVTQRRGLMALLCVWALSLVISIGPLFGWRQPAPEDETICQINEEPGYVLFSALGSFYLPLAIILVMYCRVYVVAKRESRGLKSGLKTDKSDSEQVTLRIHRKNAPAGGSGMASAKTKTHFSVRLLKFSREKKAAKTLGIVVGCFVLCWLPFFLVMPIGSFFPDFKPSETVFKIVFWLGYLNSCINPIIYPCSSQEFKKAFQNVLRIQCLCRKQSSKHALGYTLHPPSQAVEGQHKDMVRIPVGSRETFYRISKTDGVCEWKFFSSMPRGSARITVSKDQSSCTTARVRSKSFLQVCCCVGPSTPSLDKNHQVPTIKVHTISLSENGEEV
Reported IC50 values follow for various molecules
Respond numerically; units are nM and should not be typed.

Sample answers from the record:
CN(C)CCC1CC2c3ccccc3Cc3ccccc3N2O1 (stereo not drawn)	1910
CN(C)CC1CC2c3ccccc3Cc3ccccc3N2O1 (stereo in doubt; 2a)	537

Lab note: next molecule to report on.
Name the reported IC50 value associated with the molecule CNCC1CC2c3ccccc3Cc3ccccc3N2O1 (stereo not drawn) 191

###

Reported ED50 values follow for various molecules
test system: Rattus norvegicus; assay: In vivo activity in mCPP challenge test were performed in male Wistar rats by subcutaneous administration; type: functional; conditions: Rattus norvegicus, sc; read-out: ED50

Sample answers from the record:
c1ccc2c(c1)Cc1ccccc1N1OC(CN3CCCC3)CC21 (stereo not drawn)	> 2.5 mg/kg
CN(C)CC1CC2c3ccccc3Oc3ccc(Cl)cc3N2O1 (stereo not drawn)	> 2.5 mg/kg
CN1CCN2c3ccccc3Cc3ccccc3C2C1 (stereo not drawn) [MIANSERIN]	0.16 mg/kg

Name the reported ED50 value associated with the molecule c1ccc2c(c1)Cc1ccccc1N1OC(CN3CCOCC3)CC21 (stereo not drawn) 2.5 mg/kg

Name the reported ED50 value associated with the molecule CN(C)CC1(C)CC2c3ccccc3Cc3ccccc3N2O1 (stereo in doubt; trans) > 2.5 mg/kg

Name the reported ED50 value associated with the molecule CN(C)CCC1CC2c3ccccc3Cc3ccccc3N2O1 (stereo not drawn) 2.5 mg/kg

Name the reported ED50 value associated with the molecule CNCC1CC2c3ccccc3Cc3ccccc3N2O1 (stereo not drawn) 0.16 mg/kg

Name the reported ED50 value associated with the molecule CN1CCN(CC2CC3c4ccccc4Cc4ccccc4N3O2)CC1 (stereo not drawn) > 2.5 mg/kg

###

Reported pIC50 values follow for various compounds
target: UniProt:P18825
Sequence (P18825 whole entry): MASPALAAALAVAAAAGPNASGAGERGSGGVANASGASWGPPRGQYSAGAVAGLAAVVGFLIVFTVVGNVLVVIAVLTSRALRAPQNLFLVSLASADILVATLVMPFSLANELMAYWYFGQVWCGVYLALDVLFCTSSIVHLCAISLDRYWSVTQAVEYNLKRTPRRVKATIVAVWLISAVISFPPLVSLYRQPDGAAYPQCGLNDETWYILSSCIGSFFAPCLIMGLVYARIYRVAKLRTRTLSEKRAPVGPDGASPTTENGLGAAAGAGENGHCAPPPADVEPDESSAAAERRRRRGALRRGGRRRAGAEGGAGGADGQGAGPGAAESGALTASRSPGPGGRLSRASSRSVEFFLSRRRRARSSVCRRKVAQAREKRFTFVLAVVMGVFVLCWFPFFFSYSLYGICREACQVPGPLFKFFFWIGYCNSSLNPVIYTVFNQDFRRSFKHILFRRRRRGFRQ
pIC50 field: float, defined as -log10 of concentration (mol/L).

CN1CCN2c3ccccc3Cc3ccccc3C2C1 (stereo not drawn) [MIANSERIN]	7.37

Name the reported pIC50 value associated with the compound CN(C)CC1CC2c3ccccc3Cc3ccccc3N2O1 (stereo in doubt; 2a) 5.73

###

biological target: 5-hydroxytryptamine receptor 2A (Homo sapiens); assay: biochemical
Sequence (P28223 whole entry): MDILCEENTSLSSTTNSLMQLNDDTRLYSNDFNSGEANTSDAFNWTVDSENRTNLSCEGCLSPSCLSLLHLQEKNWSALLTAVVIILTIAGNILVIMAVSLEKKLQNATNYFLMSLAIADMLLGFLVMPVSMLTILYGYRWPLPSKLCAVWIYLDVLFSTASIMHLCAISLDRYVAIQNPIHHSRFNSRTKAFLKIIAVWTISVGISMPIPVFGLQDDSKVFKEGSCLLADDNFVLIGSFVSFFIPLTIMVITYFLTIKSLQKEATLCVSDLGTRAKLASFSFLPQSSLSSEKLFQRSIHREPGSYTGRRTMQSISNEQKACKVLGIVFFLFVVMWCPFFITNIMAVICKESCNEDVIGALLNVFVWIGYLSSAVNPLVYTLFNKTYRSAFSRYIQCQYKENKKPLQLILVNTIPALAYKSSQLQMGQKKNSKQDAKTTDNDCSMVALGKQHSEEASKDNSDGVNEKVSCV
Description: Binding affinity for human cloned 5-hydroxytryptamine 2A receptor expressed in L929 cells using [125I]R91150 as radioligand
Readout Type: IC50 (nM)
Respond numerically; units are nM and should not be typed.

Sample answers from the record:
CN(C)CC1(C)CC2c3ccccc3Cc3ccccc3N2O1 (stereo in doubt; cis)	57.5
NCC1CC2c3ccccc3Cc3ccccc3N2O1 (configuration not stated)	15.8
CN1CCN(CC2CC3c4ccccc4Cc4ccccc4N3O2)CC1 (configuration not stated)	282
c1ccc2c(c1)Cc1ccccc1N1OC(CN3CCCC3)CC21 (configuration not stated)	25.1
c1ccc2c(c1)Cc1ccccc1N1OC(CN3CCOCC3)CC21 (configuration not stated)	141

Request: IC50, test system 5-hydroxytryptamine receptor 2A (Homo sapiens), entry CN(C)CCC1CC2c3ccccc3Cc3ccccc3N2O1 (configuration not stated) 91.2

Request: IC50, test system 5-hydroxytryptamine receptor 2A (Homo sapiens), entry CNCC1CC2c3ccccc3Cc3ccccc3N2O1 (configuration not stated) 13.2

Request: IC50, test system 5-hydroxytryptamine receptor 2A (Homo sapiens), entry CN(C)CC1CC2c3ccccc3Oc3ccc(Cl)cc3N2O1 (configuration not stated) 1.91

###

biological target: UniProtKB P14416
Sequence (P14416 whole entry): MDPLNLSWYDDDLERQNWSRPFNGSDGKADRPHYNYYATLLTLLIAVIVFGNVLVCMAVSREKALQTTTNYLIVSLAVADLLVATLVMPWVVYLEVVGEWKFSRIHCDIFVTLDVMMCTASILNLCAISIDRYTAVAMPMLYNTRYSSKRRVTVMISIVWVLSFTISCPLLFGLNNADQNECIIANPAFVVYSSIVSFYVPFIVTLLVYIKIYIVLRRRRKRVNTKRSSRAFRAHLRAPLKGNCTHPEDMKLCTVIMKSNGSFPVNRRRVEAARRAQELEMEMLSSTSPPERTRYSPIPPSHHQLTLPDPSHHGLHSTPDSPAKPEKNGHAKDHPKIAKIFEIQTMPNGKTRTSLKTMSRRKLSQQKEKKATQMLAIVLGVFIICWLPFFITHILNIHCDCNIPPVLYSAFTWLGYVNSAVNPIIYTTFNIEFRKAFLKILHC
Reported IC50 values follow for various compounds

CN1CCN2c3ccccc3Cc3ccccc3C2C1 (configuration not stated) [MIANSERIN]	7.08 µM

Lab note: next compound to report on.
Request: IC50, test system UniProtKB P14416, entry CNCC1CC2c3ccccc3Cc3ccccc3N2O1 (configuration not stated) 1.7 µM

###

target: 5-hydroxytryptamine receptor 2C (Homo sapiens, UniProt P28335); test: Binding affinity for human cloned 5-hydroxytryptamine 2C receptor expressed in CHO cells using [3H]mesulergine as radioligand
Reported pIC50 values follow for various compounds
pIC50 field: float, defined as -log10 of concentration (mol/L).

Name the reported pIC50 value associated with the compound CN(CC1CC2c3ccccc3Cc3ccccc3N2O1)C(=O)C(F)(F)F (stereo unspecified) 6.16

Name the reported pIC50 value associated with the compound NCC1CC2c3ccccc3Cc3ccccc3N2O1 (stereo unspecified) 8.25

Name the reported pIC50 value associated with the compound CN(C)CC1CC2c3ccccc3Oc3ccc(Cl)cc3N2O1 (stereo unspecified) 8.42

Name the reported pIC50 value associated with the compound CCN(CC)CC1CC2c3ccccc3Cc3ccccc3N2O1 (stereo unspecified) 7.84

Name the reported pIC50 value associated with the compound CN(C)CCCC1CC2c3ccccc3Cc3ccccc3N2O1 (stereo unspecified) 7.73

Name the reported pIC50 value associated with the compound CN(C)CC1(C)CC2c3ccccc3Cc3ccccc3N2O1 (stereo in doubt; cis) 7.86

###

Target: D(4) dopamine receptor (Homo sapiens)
Sequence (P21917 whole entry): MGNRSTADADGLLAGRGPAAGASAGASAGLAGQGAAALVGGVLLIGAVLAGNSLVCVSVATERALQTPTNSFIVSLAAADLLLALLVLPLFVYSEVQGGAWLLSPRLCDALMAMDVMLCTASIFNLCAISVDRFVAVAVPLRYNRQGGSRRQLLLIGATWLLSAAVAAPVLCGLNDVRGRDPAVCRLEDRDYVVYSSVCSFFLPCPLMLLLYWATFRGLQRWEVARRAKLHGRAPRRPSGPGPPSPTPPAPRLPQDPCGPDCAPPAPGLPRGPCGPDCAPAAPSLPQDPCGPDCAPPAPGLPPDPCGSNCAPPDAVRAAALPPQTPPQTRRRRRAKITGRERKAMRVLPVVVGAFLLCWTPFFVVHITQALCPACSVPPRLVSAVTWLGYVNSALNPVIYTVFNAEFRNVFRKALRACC
Readout Type: pIC50
pIC50 field: float, defined as -log10 of concentration (mol/L).

Request: pIC50, test system D(4) dopamine receptor (Homo sapiens), entry CN(C)CC1CC2c3ccccc3Cc3ccccc3N2O1 (stereo in doubt; 2a) 6.88
